Data origin, for the record: PubChem BioAssay (NCI)

System: ACHN renal
Test: NCI-60 one-dose screen, 48 h (100 = growth as untreated, 0 = no growth, -100 = all killed)
Settings: 10 µM unless noted
Experimental: Growth inhibition of the ACHN human tumor cell line is measured as a screen for anti-cancer activity. Cells are grown in 96 well plates and exposed to the test compound for 48 hours. Compounds are tested at a single concentration, which is 10^-5 M for most compounds. The reported endpoint is percent growth (GI% or GIPRCNT), where numbers from 0 - 100% represent growth inhibition, and numbers from -100% - 0 represent cell death. For example, a value of 40 represents 60% growth inhibition. […]
About 83,000 compounds went through this panel and 20% of them were active in at least one assay; those are over-represented in the sample as a whole.
MEASUREMENT_LABEL: growth (%)
// units = %; emit number, no label

These solved cases illustrate the format of a correct answer.
COMPOUND	growth (%)
O=c1[nH]c(=O)c2cc(Cl)cc(Cl)c2[nH]1	103
C=CCNC(=S)N/C=C(/C(=O)c1ccccc1)c1ccccc1	97.7
C=CCC(OC(C)=O)c1ccc(C(C)C)cc1 (configuration not stated)	108
COc1ccc(C(=O)C(=O)c2ccccc2)cc1	101
Cc1ccc2[nH]c3ccccc3c2c1	110

Next item in the queue.
[Q] What value of growth has been reported for the following compound? Oc1ccc(N=Cc2ccc(OCc3ccccc3)cc2)cc1
[A] 99.7

----------
Below: a set of entries, each annotated with reported growth.
test system: LOX IMVI melanoma; test: NCI-60 one-dose screen, 48 h (100 = growth as untreated, 0 = no growth, -100 = all killed); conditions: 10 µM
About 83,000 compounds went through this panel and 20% of them were active in at least one assay; those are over-represented in the sample as a whole. Calls of active or inactive are those of the source. The calls were made as follows: active = growth percent below 10; inactive = the rest.

These solved cases illustrate the format of a correct answer.
COMPOUND	EXPERIMENTAL_TARGET	growth
CC(C)c1ccc(C(=O)OCCCl)cc1	LOX IMVI melanoma	97.1% (inactive)
COc1nc(Nc2cccc(C(F)(F)F)c2)nc(OC)n1	LOX IMVI melanoma	107% (inactive)

[Q] Query the reported growth for LOX IMVI melanoma; item: CCOP(=O)(OCC)/C(=C\N1C(=O)CC(=O)NC1=S)C(=O)OC
[A] 98.6% (inactive)

[Q] Query the reported growth for LOX IMVI melanoma; item: C[C@H](CCC[C@H](C)OS(=O)(=O)c1ccccc1)OS(=O)(=O)c1ccccc1
[A] 101% (inactive)

[Q] Query the reported growth for LOX IMVI melanoma; item: CC(=O)NNC(=S)/N=C\C(C(=O)c1ccccc1)=C(/O)c1ccccc1
[A] 94% (inactive)

[Q] Query the reported growth for LOX IMVI melanoma; item: O=C(OCC1CCCO1)c1ccc([N+](=O)[O-])cc1 (configuration not stated)
[A] 104% (inactive)

[Q] Query the reported growth for LOX IMVI melanoma; item: C=CC(C)C(C)(C)O (configuration not stated)
[A] 99.2% (inactive)

[Q] Query the reported growth for LOX IMVI melanoma; item: O=C(c1ccccc1O)N1CCCC1
[A] 99.7% (inactive)

[Q] Query the reported growth for LOX IMVI melanoma; item: CCNC(=O)OCCc1c2ccccc2nc2ccccc12
[A] 88.4% (inactive)

----------
Below: a set of entries, each annotated with reported growth.
tested on: OVCAR-5 ovarian; test: NCI-60 one-dose screen, 48 h (100 = growth as untreated, 0 = no growth, -100 = all killed); conditions: 10 µM unless noted
Compounds without any hit were thinned out: in the full panel of roughly 83,000, 20% have a hit.
// units = %; emit number, no label

These solved cases illustrate the format of a correct answer.
COMPOUND	UNIT_OF_MEASURE	growth
NCC(O)C(O)C(O)C(O)CO (centres undefined)	%	107
CN(C(=S)S(=O)(=O)C12CC3CC(CC(C3)C1)C2)c1ccccc1	%	89.6
CS(=O)(=O)c1ccc(/C=C\C(=O)O)cc1	%	105

[Q] What value of growth has been reported for the following compound? COC1OC(C(O)C(O)CO)C(O)C(O)C1O (centres undefined)
[A] 88.7

[Q] What value of growth has been reported for the following compound? OCC(O)COc1ccc(Cl)cc1Cl (centres undefined)
[A] 101

[Q] What value of growth has been reported for the following compound? CC1=CC(=Nc2ccc(N(C)C)cc2)C=C(C)C1=O
[A] 108

[Q] What value of growth has been reported for the following compound? CCCCNc1ccc(-c2ccc(NCCCC)cc2)cc1
[A] 90.3

[Q] What value of growth has been reported for the following compound? C#CC(O)c1ccccc1 (centres undefined)
[A] 101

[Q] What value of growth has been reported for the following compound? CC(C)N(CCCC#N)C(C)C
[A] 96.7

[Q] What value of growth has been reported for the following compound? C=CC1=NC(C)(C)CC(C)O1 (centres undefined)
[A] 104

----------
Below: a set of entries, each annotated with reported growth.
tested on: MCF7 breast; assay: NCI-60 one-dose screen, 48 h (100 = growth as untreated, 0 = no growth, -100 = all killed); details: 10 µM unless noted
Compounds without any hit were thinned out: in the full panel of roughly 83,000, 20% have a hit.
// units = %; emit number, no label

COMPOUND	NUMERIC_VALUE
Cc1[nH]n(-c2ccccc2)c(=O)c1C=NC(=S)C(N)=S	100
c1ccc(Nc2ccccn2)nc1	84.9
Clc1cccc(Cl)c1C1CSc2ccccc2N=C1c1ccccc1 (stereo unspecified)	9.8

[Q] What value of growth has been reported for the following compound? CC(C)c1ncc([N+](=O)[O-])n1C
[A] 97.2

[Q] What value of growth has been reported for the following compound? CC(O)C(F)(F)C(F)(F)C(F)(F)F (stereo unspecified)
[A] 101

[Q] What value of growth has been reported for the following compound? CCCCCCCCCCCCCCCCCCSC(=N)N
[A] 51.7

[Q] What value of growth has been reported for the following compound? CC(=O)C1C(=O)C(=O)N(c2ccc(Cl)c(Cl)c2)C1=O (stereo unspecified)
[A] 89.1

[Q] What value of growth has been reported for the following compound? Oc1cc2ccccc2c(-c2c(O)c(O)cc3ccccc23)c1O
[A] 12.3

[Q] What value of growth has been reported for the following compound? Cc1ccc(C(C)C)c(OCC(=O)O)c1
[A] 100

----------
Tested on: SK-OV-3 ovarian
Assay: NCI-60 one-dose screen, 48 h (100 = growth as untreated, 0 = no growth, -100 = all killed)
Conditions: 10 µM unless noted
Experimental: Growth inhibition of the SK-OV-3 human tumor cell line is measured as a screen for anti-cancer activity. Cells are grown in 96 well plates and exposed to the test compound for 48 hours. Compounds are tested at a single concentration, which is 10^-5 M for most compounds. The reported endpoint is percent growth (GI% or GIPRCNT), where numbers from 0 - 100% represent growth inhibition, and numbers from -100% - 0 represent cell death. For example, a value of 40 represents 60% growth inhibition. […]
This is part of a sample that, as a whole, favours compounds with a hit. Of some 83,000 tested, about 20% had one in any assay. The source made the active and inactive calls. Rule for the calls: active = growth percent below 10; inactive = the rest.
MEASUREMENT_LABEL: growth

These solved cases illustrate the format of a correct answer.
MOLECULE	EXPERIMENTAL_TARGET	growth
OC(CCN1CCCCC1)(c1ccccc1)c1ccccc1	SK-OV-3 ovarian	112% (inactive)
OCCNc1ccccc1	SK-OV-3 ovarian	105% (inactive)
O=S(=O)(O)c1cccnc1	SK-OV-3 ovarian	103% (inactive)

[Q] Query the reported growth for SK-OV-3 ovarian; item: O=C1NC(=O)C(c2ccccc2)O1 (configuration not stated)
[A] 96.6% (inactive)

[Q] Query the reported growth for SK-OV-3 ovarian; item: CSc1cnc2ccccc2n1
[A] 97.2% (inactive)

[Q] Query the reported growth for SK-OV-3 ovarian; item: COc1nc(Nc2cccc(C(F)(F)F)c2)nc(OC)n1
[A] 97.9% (inactive)

[Q] Query the reported growth for SK-OV-3 ovarian; item: CCOC(=O)c1c[nH][nH]c1=O
[A] 110% (inactive)

[Q] Query the reported growth for SK-OV-3 ovarian; item: O=Cc1ccc(Cl)c(Cl)c1
[A] 112% (inactive)

----------
tested on: UO-31 renal; assay: NCI-60 one-dose screen, 48 h (100 = growth as untreated, 0 = no growth, -100 = all killed); details: 10 µM unless noted
The panel holds about 83,000 compounds, 20% with a hit somewhere; the sample as a whole holds those more often.
Define the label as MET when growth is strictly less than 60% and as NOT MET in all remaining cases.

Example cases with answers are listed next.
COMPOUND	ASSIGNED_CATEGORY
Cc1ccc2[nH]c3ccccc3c2c1	NOT MET
CC(=O)C1C(=O)C(=O)N(c2ccc(Cl)c(Cl)c2)C1=O (stereo unspecified)	NOT MET

[Q] Field: below-cutoff. Rule: recorded growth strictly less than 60%. Subject: Nc1ncnc(Nc2ccc(C(F)(F)F)cc2)n1
[A] NOT MET

[Q] Field: below-cutoff. Rule: recorded growth strictly less than 60%. Subject: OCC1OC(n2ccc3c2ncn2ncnc32)C(O)C1O (stereo unspecified)
[A] MET

[Q] Field: below-cutoff. Rule: recorded growth strictly less than 60%. Subject: Cn1c(=O)c2[nH]c(CCCCC(=O)O)nc2n(C)c1=O
[A] NOT MET
